Origin of measurements: patent US20220281976A1

- test.target: human CD33 (human, UniProt P20138 18-364)
- Sequence (P20138 18-364): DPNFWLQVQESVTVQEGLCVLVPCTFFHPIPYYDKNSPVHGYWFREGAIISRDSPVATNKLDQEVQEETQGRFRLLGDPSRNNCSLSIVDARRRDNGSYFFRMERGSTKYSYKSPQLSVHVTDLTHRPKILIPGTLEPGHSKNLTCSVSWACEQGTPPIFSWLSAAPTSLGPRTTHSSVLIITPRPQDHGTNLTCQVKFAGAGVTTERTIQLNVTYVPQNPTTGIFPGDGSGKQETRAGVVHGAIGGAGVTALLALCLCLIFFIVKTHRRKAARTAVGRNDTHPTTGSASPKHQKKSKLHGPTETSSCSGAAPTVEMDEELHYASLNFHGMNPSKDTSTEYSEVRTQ
- protocol.text: cell-based or functional assay
Field: Percent CD33 Surface Expression, Macrophage % CD33. Provide a value for each of the binders that follow.
Give the value, in units of %, as a plain number.

Query C-39 (antibody, V domains shown, human IgG1) VH: QLQLQESGPGLVKPSETLSLTCTVSGGSISSSSYYWGWIRQPPGKGLEWIGSIYYSGSTYYNPSLKSRVTISVDTSKNQFSLKLSSVTAADTAVYYCAREGVRGMDVWGQGTTVTVSS VL: EIVLTQSPGTLSLSPGERATLSCRASQSVSSSYLAWYQQKPGQAPRLLIYGASSRATGIPDRFSGSGSGTDFTLTISRLEPEDFAVYYCQQFAFLPPTFGGGTKVEIK yields Percent CD33 Surface Expression, Macrophage % CD33 of 46.5

Query C-10 (antibody, V domains shown, human IgG1) VH: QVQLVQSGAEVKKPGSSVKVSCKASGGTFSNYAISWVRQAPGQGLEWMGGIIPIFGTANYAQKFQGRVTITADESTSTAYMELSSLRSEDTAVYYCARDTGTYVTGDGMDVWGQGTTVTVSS VL: EIVMTQSPATLSVSPGERATLSCRASQSVSSNLAWYQQKPGQAPRLLIYGASTRATGIPARFSGSGSGTEFTLTISSLQSEDFAVYYCQQYVNLPITFGGGTKVEIK yields Percent CD33 Surface Expression, Macrophage % CD33 of 44.5

Query C-38 (antibody, V domains shown, human IgG1) VH: QLQLQESGPGLVKPSETLSLTCTVSGGSISSSSYYWGWIRQPPGKGLEWIGSIYYSGSTYYNPSLKSRVTISVDTSKNQFSLKLSSVTAADTAVYYCAREATAAADHPGMDVWGQGTTVTVSS VL: DIQMTQSPSSLSASVGDRVTITCQASQDITNYLNWYQQKPGKAPKLLIYDASNLETGVPSRFSGSRSGTDFTFTISSLQPEDIATYYCQQYHDFPTFGGGTKVEIK yields Percent CD33 Surface Expression, Macrophage % CD33 of 49.1

Query C-13 (antibody, V domains shown, human IgG1) VH: EVQLVESGGGLVQPGGSLRLSCAASGFTFSSYWMSWVRQAPGKGLEWVANIKSDGSEKYYVDSVKGRFTISRDNAKNSLYLQMNSLRAEDTAVYYCARGPSYLASGAFDLWGRGTLVTVSS VL: EIVLTQSPATLSLSPGERATLSCRASQSVSSYLAWYQQKPGQAPRLLIYDASNRATGIPARFSGSGSGTDFTLTISSLEPEDFAVYYCQQAYVVPPRTFGGGTKVEIK yields Percent CD33 Surface Expression, Macrophage % CD33 of 63.1

Query C-88 (antibody, V domains shown, human IgG1) VH: QLQLQESGPGLVKPSETLSLTCTVSGGSISSSSYYWGWIRQPPGKGLEWIGSIYYSGSTYYNPSLKSRVTISVDTSKNQFSLKLSSVTAADTAVYYCARLPIYYDSSGYFDYHGMDVWGQGTTVTVSS VL: EIVLTQSPATLSLSPGERATLSCRASQSVSSYLAWYQQKPGQAPRLLIYDASNRATGIPARFSGSGSGTDFTLTISSLEPEDFAVYYCQQHANHPPTFGGGTKVEIK yields Percent CD33 Surface Expression, Macrophage % CD33 of 41.4
